- test_target: UGT1A8 (Homo sapiens, UniProt Q9HAW9)
- Sequence (Q9HAW9 26-530): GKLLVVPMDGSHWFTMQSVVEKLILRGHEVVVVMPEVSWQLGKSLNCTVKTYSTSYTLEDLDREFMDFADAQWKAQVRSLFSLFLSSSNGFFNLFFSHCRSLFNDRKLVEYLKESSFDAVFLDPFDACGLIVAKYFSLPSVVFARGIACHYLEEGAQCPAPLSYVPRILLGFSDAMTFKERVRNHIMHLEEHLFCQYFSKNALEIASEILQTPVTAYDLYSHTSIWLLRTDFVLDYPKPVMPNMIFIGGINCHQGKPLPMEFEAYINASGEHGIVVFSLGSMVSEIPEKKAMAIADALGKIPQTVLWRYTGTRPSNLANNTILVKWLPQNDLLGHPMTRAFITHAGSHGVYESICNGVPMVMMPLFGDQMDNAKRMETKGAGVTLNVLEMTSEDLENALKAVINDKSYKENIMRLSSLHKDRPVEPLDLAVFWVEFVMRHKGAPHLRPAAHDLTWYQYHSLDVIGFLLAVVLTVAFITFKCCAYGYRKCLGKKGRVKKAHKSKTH
- test_name: in vitro
- experimental_context: UGT1A8 Supersomes, pH 7.5, probe aprepitant […] (Km), AP-G formation

| smiles_entry | inhibition at 60 min, 500 µM [%] |
| --- | --- |
| O=C(O)Cc1ccccc1Nc1c(Cl)cccc1Cl | 66.7 |

----------
- test_target: UGT1A6 (Homo sapiens, UniProt P19224)
- Sequence (P19224 27-532): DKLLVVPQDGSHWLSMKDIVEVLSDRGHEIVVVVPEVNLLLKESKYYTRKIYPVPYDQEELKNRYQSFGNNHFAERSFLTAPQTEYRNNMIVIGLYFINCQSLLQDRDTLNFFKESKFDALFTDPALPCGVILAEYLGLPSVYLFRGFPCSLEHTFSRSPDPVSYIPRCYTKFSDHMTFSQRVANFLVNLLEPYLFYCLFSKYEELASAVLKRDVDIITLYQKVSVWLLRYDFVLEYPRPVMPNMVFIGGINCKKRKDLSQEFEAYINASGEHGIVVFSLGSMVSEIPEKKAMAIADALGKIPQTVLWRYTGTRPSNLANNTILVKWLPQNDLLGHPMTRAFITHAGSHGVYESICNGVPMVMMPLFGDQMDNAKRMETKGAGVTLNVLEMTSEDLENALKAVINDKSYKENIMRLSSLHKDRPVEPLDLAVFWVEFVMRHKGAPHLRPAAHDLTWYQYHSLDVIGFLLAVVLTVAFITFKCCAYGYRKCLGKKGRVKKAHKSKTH
- test_name: Inhibition by aprepitant of UGT1A6
- Type: in vitro ADME
- experimental_context: UGT1A6 enzyme, pH 7.5, probe 4-MU
quantity: inhibition at 10 µM (%)

| compound | quantity | measurement |
| --- | --- | --- |
| C[C@@H](O[C@H]1OCCN(Cc2n[nH]c(=O)[nH]2)[C@H]1c1ccc(F)cc1)c1cc(C(F)(F)F)cc(C(F)(F)F)c1 [aprepitant, Aprepitant] | inhibition at 10 µM | 19 |

----------
- test_name: in vitro
- experimental_context: human, microsomes, pH 7.5
quantity: microsomal CLint (µL/min/mg)

| molecule | quantity | measurement |
| --- | --- | --- |
| C[C@@H](O[C@H]1OCCN(Cc2n[nH]c(=O)[nH]2)[C@H]1c1ccc(F)cc1)c1cc(C(F)(F)F)cc(C(F)(F)F)c1 [aprepitant, Aprepitant] | microsomal CLint | 5600 |
